Target: G-protein coupled bile acid receptor 1 (Homo sapiens, UniProt Q8TDU6)
Sequence (Q8TDU6 whole entry): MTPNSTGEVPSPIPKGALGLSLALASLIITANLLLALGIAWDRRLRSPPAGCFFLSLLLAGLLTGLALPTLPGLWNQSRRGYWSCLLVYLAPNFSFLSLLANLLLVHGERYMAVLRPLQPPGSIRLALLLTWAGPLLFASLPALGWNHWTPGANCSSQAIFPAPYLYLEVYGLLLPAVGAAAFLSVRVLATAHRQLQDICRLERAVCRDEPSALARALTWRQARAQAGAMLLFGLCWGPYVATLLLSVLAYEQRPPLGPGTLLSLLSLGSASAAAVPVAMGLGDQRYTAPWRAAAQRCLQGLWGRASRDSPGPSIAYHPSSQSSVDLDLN
Test: Agonist activity at TGR5 (unknown origin) by TR-FRET assay
Assay type: functional
MEASURED QUANTITY: EC50
Answer with the number, then the unit.

O=C(c1cccnc1Oc1cc(Cl)ccc1Cl)N1CCCc2ccc(F)cc21	0.05 µM
O=C(c1cccnc1Oc1cc(Cl)ccc1Cl)N1CCN(C2CC2)c2ccccc21	0.01 µM
O=C(c1cccnc1Oc1cc(Cl)ccc1Cl)N1CCCc2cc(F)ccc21	0.02 µM

Pending compound:
## Task Please give measured EC50 of the following entry: O=C(c1cccnc1Oc1cc(Cl)ccc1Cl)N1CCCc2cc(F)c(F)cc21
## Result 0.05 µM
